Assay: qHTS assay for small molecule activators of the heat shock response signaling pathway (AID 743210);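 further: HeLa cells with beta-lactamase reporter driven by heat shock elements; on the % scale 0 is the no-effect control and ±100 the full control effect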
Experimental setup: HeLa HSE-bla reporter, beta-lactamase ratio, 5 h; series mostly up to 62.6 µM
Records with an inconclusive call do not appear. Activity calls are given as the source filed them. The call rests on the fitted dose curve; in most records, active means well fitted activation curve with a large enough effect in the signal ratio in the repeat runs, with a control signal flat (not every such curve was filed as active); inconclusive means weak or mixed curves; inactive means flat fitted curve, though single readings scatter; the % refers to the signal ratio.

>  <Molecule>
CCC1=C(C)CN(C(=O)NCCc2ccc(S(=O)(=O)NC(=O)NC3CCC(C)CC3)cc2)C1=O (centres undefined)

>  <activation>
inactive

$$$$
>  <Molecule>
CCCc1ccc(OC)cc1

>  <activation>
inactive

$$$$
>  <Molecule>
O=C(C1CCCCC1)N1CC(=O)N2CCCc3ccccc3C2C1 (centres undefined)

>  <activation>
inactive

$$$$
>  <Molecule>
C[C@H](CN1CCCC1)C(=O)c1ccc(C(F)(F)F)cc1

>  <activation>
inactive

$$$$
>  <Molecule>
CC(CN=Cc1ccccc1O)N=Cc1ccccc1O (centres undefined)

>  <activation>
inactive

$$$$
>  <Molecule>
CCc1cnc(C(=O)O)c(C(=O)O)c1

>  <activation>
inactive

$$$$
>  <Molecule>
CC(=O)Oc1cccc2c1C(=O)c1c(OC(C)=O)cc(C(=O)O)cc1C2=O

>  <activation>
inactive

$$$$
>  <Molecule>
c1ccc(CN(Cc2ccccc2)Cc2ccccc2)cc1

>  <activation>
inactive

$$$$
>  <Molecule>
CC(=O)Nc1ccn(C2COC(COC(=O)c3ccccc3)O2)c(=O)n1 (centres undefined)

>  <activation>
inactive

$$$$
>  <Molecule>
CC(C)=CCC/C(C)=C/C=N/O

>  <activation>
inactive

$$$$
>  <Molecule>
CCOC(OCC)OCC

>  <activation>
inactive

$$$$
>  <Molecule>
O=C(O)COCC(=O)O

>  <activation>
inactive

$$$$
>  <Molecule>
Nc1ncnc2c1ncn2[C@@H]1O[C@H](CO)[C@@H](O)[C@H]1O

>  <activation>
inactive

$$$$
>  <Molecule>
CCCCCCOC(=O)c1ccccc1

>  <activation>
inactive

$$$$
>  <Molecule>
CC(C)(O)C(=O)O

>  <activation>
inactive

$$$$
>  <Molecule>
CC(C)NC(=O)c1ccccc1N

>  <activation>
inactive

$$$$
>  <Molecule>
CC(C)(Cc1c[nH]c2ccccc12)NCC(O)COc1ccccc1C#N (centres undefined)

>  <activation>
inactive

$$$$
>  <Molecule>
Nc1ccc(C(=O)Oc2ccccc2)c(O)c1

>  <activation>
inactive

$$$$
>  <Molecule>
CCCCCCCCCCCCCCCCCCCl

>  <activation>
-1.98% [at 5.95 µM] (inactive)

$$$$
>  <Molecule>
CCCCCCCCCCCCCCCCN

>  <activation>
inactive

$$$$
>  <Molecule>
O=C(O)c1cc(C(=O)O)cc([N+](=O)[O-])c1

>  <activation>
inactive

$$$$
>  <Molecule>
Clc1cc(Cl)c2c(c1)N=C1CCCCCN1C2

>  <activation>
inactive

$$$$
>  <Molecule>
COc1ccc(C(=O)c2ccc(C)cc2)c(O)c1

>  <activation>
inactive

$$$$
>  <Molecule>
C=CC(=O)OCCCCCCCCCC

>  <activation>
inactive

$$$$
>  <Molecule>
COc1ccc(CN(CCN(C)C)c2ncccn2)cc1

>  <activation>
inactive

$$$$
>  <Molecule>
O=C(O)c1c2ccccc2cc2ccccc12

>  <activation>
inactive

$$$$
>  <Molecule>
Nc1cccc2c(=O)[nH][nH]c(=O)c12

>  <activation>
inactive

$$$$
>  <Molecule>
CCCCCC1CCC(=O)O1 (centres undefined)

>  <activation>
inactive

$$$$
>  <Molecule>
Cc1ccc(S(=O)(=O)NC(=O)NC2CCCC2)cc1

>  <activation>
inactive

$$$$
>  <Molecule>
CC(C)=CCC[C@H](C)CCO

>  <activation>
inactive

$$$$
>  <Molecule>
CC(CCl)OC(C)CCl (centres undefined)

>  <activation>
inactive

$$$$
>  <Molecule>
CC(=O)Nc1ccccc1O

>  <activation>
inactive

$$$$
>  <Molecule>
CCCOC(C)=O

>  <activation>
inactive

$$$$
>  <Molecule>
C(/C=C/C=C/Nc1ccccc1)=Nc1ccccc1

>  <activation>
inactive

$$$$
>  <Molecule>
COC(=O)C(C)(C)C

>  <activation>
inactive

$$$$
>  <Molecule>
CC(C)Oc1ccccc1O

>  <activation>
inactive

$$$$
>  <Molecule>
O=C(O)c1cccnc1Nc1cccc(C(F)(F)F)c1

>  <activation>
inactive

$$$$
>  <Molecule>
CC(C)C/C=C(\C=O)c1ccccc1

>  <activation>
inactive

$$$$
>  <Molecule>
O=S(=O)(O)c1cc(Cl)c(Cl)cc1Cl

>  <activation>
inactive

$$$$
>  <Molecule>
CCCC1CCOC(C)S1 (centres undefined)

>  <activation>
inactive

$$$$
>  <Molecule>
CC(=O)CC/C=C(\C)CC/C=C(\C)CC/C=C(\C)CCC=C(C)C

>  <activation>
inactive

$$$$
>  <Molecule>
O=C(O)c1ccc(O)c(O)c1

>  <activation>
inactive

$$$$
>  <Molecule>
COc1ccc(C(=O)Nc2ccccc2)cc1[N+](=O)[O-]

>  <activation>
inactive

$$$$
>  <Molecule>
CCCCCCCCOCCCN

>  <activation>
inactive

$$$$
>  <Molecule>
CO[C@@H]1[C@@H](O[C@@H]2O[C@H](C)[C@@H](O[C@H]3C[C@@](C)(O)[C@@H](O)[C@H](C)O3)[C@H](N(C)C)[C@H]2O)[C@@H](CC=O)C[C@@H](C)[C@@H](O[C@@H]2CC[C@H](N(C)C)[C@@H](C)O2)/C=C/C=C/C[C@@H](C)OC(=O)C[C@H]1OC(C)=O

>  <activation>
inactive

$$$$
>  <Molecule>
O=C(O)c1ccccc1[N+](=O)[O-]

>  <activation>
inactive

$$$$
>  <Molecule>
Cc1ccc2c(Cl)cc(Cl)c(O)c2n1

>  <activation>
inactive

$$$$
>  <Molecule>
O=C(O)c1cccc(C(=O)O)c1C(=O)O

>  <activation>
inactive

$$$$
>  <Molecule>
CCCCCCCCCCCCN1CCOCC1

>  <activation>
inactive

$$$$
>  <Molecule>
Cc1nc2sccn2c(=O)c1CCN1CCC(=C(c2ccc(F)cc2)c2ccc(F)cc2)CC1

>  <activation>
inactive

$$$$
>  <Molecule>
CCOCCn1c(N2CCCN(C)CC2)nc2ccccc21

>  <activation>
inactive

$$$$
>  <Molecule>
COc1ccc(/C(C)=C/C(=O)O)c(OC)c1

>  <activation>
inactive

$$$$
>  <Molecule>
O=C(OC1C[C@H]2CC[C@@H](C1)[N+]21CCCC1)C(O)(c1ccccc1)c1ccccc1 (some centres undefined)

>  <activation>
inactive

$$$$
>  <Molecule>
CC(C)(C)c1ccc(CCC=O)cc1

>  <activation>
inactive

$$$$
